The following compounds are shown together with reported logD values.
type: physicochemical; settings: pH 7.4
Starred links: 1 amine or outer side, 2 acyl side, 3 side chain; linkers in the order of their positions; H or OH if unused. Non-standard residues stand in square brackets, D forms with d. Residues, ends and D or L forms follow the SMILES beside them. *: point of attachment. DOTA = O=C(O)CN1CCN(CC(=O)O)CCN(CC(=O)*)CCN(CC(=O)O)CC1; d(γGlu) = O=C(O)[C@@H](CCC(=O)[*:2])N[*:1]; 1Nal = N[C@@H](Cc1cccc2ccccc12)C(=O)O; PEG5 = NCCOCCOCCOCCOCCOCCC(=O)O; NMeNle = CCCC[C@H](NC)C(=O)O
Simply state the number, no unit and no words.

COMPOUND	logD
CCCC[C@@H](C(=O)N[C@@H](CC(=O)O)C(=O)N[C@@H](Cc1cccc2ccccc12)C(N)=O)N(C)C(=O)[C@H](Cc1c[nH]c2ccccc12)NC(=O)CNC(=O)[C@H](Cc1ccc(O)cc1)NC(=O)CNC(=O)CNC(=O)CN1CCN(CC(=O)O)CCN(CC(=O)O)CCN(CC(=O)O)CC1 [[^nat/177Lu]Lu-DOTA-CCK-56, metal not drawn] ({DOTA}-GGYGW[NMeNle]D[1Nal]-NH2)	-1.38
CCCC[C@@H](C(=O)N[C@@H](CC(=O)O)C(=O)N[C@@H](Cc1cccc2ccccc12)C(N)=O)N(C)C(=O)[C@H](Cc1c[nH]c2ccccc12)NC(=O)CNC(=O)CNC(=O)CNC(=O)CNC(=O)CN1CCN(CC(=O)O)CCN(CC(=O)O)CCN(CC(=O)O)CC1 [[^nat/177Lu]Lu-DOTA-CCK-55, metal not drawn] ({DOTA}-GGGGW[NMeNle]D[1Nal]-NH2)	-2.09
CCCC[C@@H](C(=O)N[C@@H](CC(=O)O)C(=O)N[C@@H](Cc1cccc2ccccc12)C(N)=O)N(C)C(=O)[C@H](Cc1c[nH]c2ccccc12)NC(=O)CNC(=O)CNC(=O)[C@H](C)NC(=O)CC[C@@H](NC(=O)CN1CCN(CC(=O)O)CCN(CC(=O)O)CCN(CC(=O)O)CC1)C(=O)O [[^nat/177Lu]Lu-DOTA-CCK-61, metal not drawn] ({DOTA-d(γGlu)}-AGGW[NMeNle]D[1Nal]-NH2)	-2.56

// query logD value for entry CCCC[C@@H](C(=O)N[C@@H](CC(=O)O)C(=O)N[C@@H](Cc1cccc2ccccc12)C(N)=O)N(C)C(=O)[C@H](Cc1c[nH]c2ccccc12)NC(=O)CCOCCOCCOCCOCCOCCNC(=O)CN1CCN(CC(=O)O)CCN(CC(=O)O)CCN(CC(=O)O)CC1 [[^nat/177Lu]Lu-DOTA-CCK-63, metal not drawn] ({DOTA-PEG5}-W[NMeNle]D[1Nal]-NH2)
-2.13

Another: CCCC[C@@H](C(=O)N[C@@H](CC(=O)O)C(=O)N[C@@H](Cc1cccc2ccccc12)C(N)=O)N(C)C(=O)[C@H](Cc1c[nH]c2ccccc12)NC(=O)CNC(=O)[C@H](Cc1ccc(O)cc1)NC(=O)[C@H](C)NC(=O)CC[C@@H](NC(=O)CN1CCN(CC(=O)O)CCN(CC(=O)O)CCN(CC(=O)O)CC1)C(=O)O [[^nat/177Lu]Lu-DOTA-γ-MGS5, metal not drawn, reference compound] ({DOTA-d(γGlu)}-AYGW[NMeNle]D[1Nal]-NH2)
-2.24

From: paper PMC10329608
